# IC50 values compiled below
Biological target: catalytic domain (JH1, amino acids 826-1132) of human JAK2 (Homo sapiens)
Construct: catalytic domain (JH1, amino acids 826-1132) of human JAK2; FLAG (N)
Assay: JAK2 LanthaScreen JH1 Binding Assay
Settings: JAK2 JH1 (1.5 nM), 50 nM fluorescent JAK2-JH1 tracer, 2 hours at 25° C.; read-out: JH1 BIND

Cn1ncc2cc(-c3c(C4CC4C#N)[nH]c4ncc5c(c34)n(C3CCCC3)c(=O)n5C)ccc21 (stereo not shown) :: 500 to 1000 nM
COc1ccc(-c2c(-c3ccc(CN4CCC(S(C)(=O)=O)CC4)cc3)[nH]c3ncc4c([nH]c(=O)n4C)c23)cc1 :: 100 to 500 nM
CC(C)n1c(=O)n(C)c2cnc3[nH]c(-c4ccc(CN5CCC(S(C)(=O)=O)CC5)cc4)c(-c4cnn(Cc5ccc(C(=O)O)cc5)c4)c3c21 :: 100 to 500 nM

-- ask Need IC50 of Cn1c(=O)n(-c2ccccc2)c2c3cc(-c4ccc(CN5CCC(S(C)(=O)=O)CC5)c(F)c4)[nH]c3ncc21 , thanks.
-- reply 10 to 100 nM

----------
Target: pseudo-kinase domain (JH2, amino-acids 536-812 with 3 surface mutations W659A, W777A, F794H) of human V617F mutant JAK2 (Homo sapiens, UniProt O60674, F794H/V617F/W659A/W777A)
Construct: pseudo-kinase domain (JH2, amino-acids 536-812 with 3 surface mutations W659A, W777A, F794H); His (C); Avi (biotinylated) (C)
Sequence (O60674 536-812 V617F/W659A/W777A/F794H): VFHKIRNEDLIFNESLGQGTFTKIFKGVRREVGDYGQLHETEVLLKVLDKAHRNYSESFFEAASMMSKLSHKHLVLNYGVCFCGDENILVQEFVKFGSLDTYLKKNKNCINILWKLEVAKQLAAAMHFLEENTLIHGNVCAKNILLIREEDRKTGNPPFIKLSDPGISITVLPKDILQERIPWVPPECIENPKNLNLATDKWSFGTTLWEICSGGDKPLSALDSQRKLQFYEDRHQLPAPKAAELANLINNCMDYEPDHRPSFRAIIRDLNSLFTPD
Assay: JAK2 LanthaScreen JH2-V617F Binding Assay
Conditions: JAK2 JH2-V617F (0.26 nM), 50 nM Fluorescent JAK2-JH2 Tracer, 1 hour at 25° C.; read-out: JH2 BIND V617F
# IC50 values compiled below

Worked cases, answers included:
CC(C)n1c(=O)n(C)c2cnc3[nH]c(-c4cnn(CC(C)(C)O)c4)c(-c4ccc(C5(C#N)CC5)cc4)c3c21 :: ≤ 10 nM
Cn1c(=O)n(C2CCOCC2)c2c3c(-c4ccc(C5(C#N)CC5)cc4)c(-c4ccc(CN5CCC(S(C)(=O)=O)CC5)cc4)[nH]c3ncc21 :: ≤ 10 nM
Cn1c(=O)n(-c2ccc3occc3c2)c2c3cc(-c4ccc(CN5CCC(S(C)(=O)=O)CC5)cc4)[nH]c3ncc21 :: 10 to 100 nM

-- ask Need IC50 of CC(C)n1c(=O)n(C)c2cnc3[nH]c(-c4cnn(CC(C)(C)O)c4)c(-c4ccc5ncsc5c4)c3c21 , thanks.
-- reply 10 to 100 nM

-- ask Need IC50 of CC(C)n1c(=O)n(C)c2cnc3[nH]c(-c4cnn(CC(C)(C)O)c4)c(-c4cc5c(s4)CCNC5)c3c21 , thanks.
-- reply 500 to 1000 nM

-- ask Need IC50 of CC(C)n1c(=O)n(C)c2cnc3[nH]c(C4=CCOCC4)c(-c4ccc(C#N)cc4)c3c21 , thanks.
-- reply 10 to 100 nM

----------
Biological target: catalytic domain (JH1, amino acids 826-1132) of human JAK2 (Homo sapiens)
Construct: catalytic domain (JH1, amino acids 826-1132) of human JAK2; FLAG (N)
Assay: JAK2 LanthaScreen JH1 Binding Assay
Conditions: JAK2 JH1 (1.5 nM), 50 nM fluorescent JAK2-JH1 tracer, 2 hours at 25° C.; read-out: JH1 BIND
# IC50 values compiled below

Cn1c(=O)n(C)c2c3c(-c4ccccc4)c(-c4cccnc4)[nH]c3ncc21 :: > 1000 nM
Cn1c(=O)n(C2CCCC2)c2c3c(-c4ccccc4)c(-c4ccc(CN5CCC(S(C)(=O)=O)CC5)cc4)[nH]c3ncc21 :: 100 to 500 nM

-- ask Need IC50 of [2H]C([2H])([2H])n1ncc2cc(-c3c(-c4cn(C)nc4OC)[nH]c4ncc5c(c34)n(C3CCOCC3)c(=O)n5C)ccc21 , thanks.
-- reply > 1000 nM

-- ask Need IC50 of CN(CCCS(C)(=O)=O)Cc1ccc(-c2cc3c(ncc4c3n(-c3ccccc3)c(=O)n4C)[nH]2)cc1 , thanks.
-- reply 10 to 100 nM

----------
Target: pseudo-kinase domain (JH2, amino-acids 536-812 with 3 surface mutations W659A, W777A, F794H) of human V617F mutant JAK2 (Homo sapiens, UniProt O60674, F794H/V617F/W659A/W777A)
Construct: pseudo-kinase domain (JH2, amino-acids 536-812 with 3 surface mutations W659A, W777A, F794H); His (C); Avi (biotinylated) (C)
Experiment: JAK2 LanthaScreen JH2-V617F Binding Assay
Conditions: JAK2 JH2-V617F (0.26 nM), 50 nM Fluorescent JAK2-JH2 Tracer, 1 hour at 25° C.; read-out: JH2 BIND V617F
pIC50: −log10 of the molar value.
# pIC50 values compiled below

Worked cases, answers included:
Cn1c(=O)n(C2CCOCC2)c2c3c(-c4ccccc4)c(-c4ccc(CN5CCC(S(C)(=O)=O)CC5)cc4)[nH]c3ncc21 [Example 46] :: ≥ 8.00
Cn1ncc2cc(-c3c(-c4cccnc4)[nH]c4ncc5c(c34)n(C3CCCC3)c(=O)n5C)ccc21 [Example 61] :: ≥ 8.00
Cn1c(=O)n(C2CCCOC2)c2c3cc(-c4ccc(CN5CCC(S(C)(=O)=O)CC5)cc4)[nH]c3ncc21 (stereo not shown) [Example 15] :: 6.30 to 7.00

-- ask Need pIC50 of CCOC(=O)N[C@H]1C[C@@H](n2c(=O)n(C)c3cnc4[nH]c(-c5cnn(C)c5)c(-c5ccc(OC)cc5)c4c32)C1 [Example 106] , thanks.
-- reply ≥ 8.00

-- ask Need pIC50 of Cn1c(=O)n(C2CCCC2)c2c3c(-c4cc5cnccc5s4)c(C4CC4)[nH]c3ncc21 [Example 71] , thanks.
-- reply 7.00 to 8.00

-- ask Need pIC50 of COCC(=O)NC1CCC(n2c(=O)n(C)c3cnc4[nH]c(-c5cnn(CC(C)(C)O)c5)c(-c5ccc6c(cnn6C)c5)c4c32)CC1 (stereo not shown) [Example 73] , thanks.
-- reply ≥ 8.00

-- ask Need pIC50 of COc1ccc(-c2[nH]c3ncc4c(c3c2-c2ccc3c(cnn3C)c2)n(C2CCCC2)c(=O)n4C)cn1 [Example 64] , thanks.
-- reply 7.00 to 8.00

----------
Target: catalytic domain (JH1, amino acids 826-1132) of human JAK2 (Homo sapiens, UniProt O60674)
Construct: catalytic domain (JH1, amino acids 826-1132) of human JAK2; FLAG (N)
Sequence (O60674 826-1132): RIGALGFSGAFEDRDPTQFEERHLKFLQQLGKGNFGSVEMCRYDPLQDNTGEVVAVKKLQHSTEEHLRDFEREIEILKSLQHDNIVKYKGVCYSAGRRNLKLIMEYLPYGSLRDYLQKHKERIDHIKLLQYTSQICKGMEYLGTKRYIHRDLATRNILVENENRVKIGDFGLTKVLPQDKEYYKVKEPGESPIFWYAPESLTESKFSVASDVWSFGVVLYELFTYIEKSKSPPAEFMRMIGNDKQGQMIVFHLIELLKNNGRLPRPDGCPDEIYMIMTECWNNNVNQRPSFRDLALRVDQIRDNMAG
Assay: JAK2 LanthaScreen JH1 Binding Assay
Conditions: JAK2 JH1 (1.5 nM), 50 nM fluorescent JAK2-JH1 tracer, 2 hours at 25° C.; read-out: JH1 BIND
pIC50: −log10 of the molar value.
# pIC50 values compiled below

-- ask Need pIC50 of CN(C)C(=O)c1ccc(-c2[nH]c3ncc4c(c3c2-c2ccc3c(cnn3C)c2)n(C2CCCC2)c(=O)n4C)cc1 [Example 89] , thanks.
-- reply 6.00 to 6.30

-- ask Need pIC50 of COc1ccc(-c2c(-c3ccc(CN4CCC(S(C)(=O)=O)CC4)cc3)[nH]c3ncc4c(c23)n(-c2ccccc2)c(=O)n4C)cc1 [Example 22] , thanks.
-- reply 6.30 to 7.00

----------
Molecular target: pseudo-kinase domain (JH2, amino-acids 536-812 with 3 surface mutations W659A, W777A, F794H) of human Wild Type JAK2 (Homo sapiens, UniProt O60674, F794H/W659A/W777A)
Construct: pseudo-kinase domain (JH2, amino-acids 536-812 with 3 surface mutations W659A, W777A, F794H); His (C); Avi (biotinylated) (C)
Sequence (O60674 536-812 W659A/W777A/F794H): as the sequence (O60674 536-812 V617F/W659A/W777A/F794H) above, with F82V counted along it
Assay: JAK2 LanthaScreen JH2-WT Binding Assay
Settings: JAK2 JH2-WT (0.145 nM), 50 nM Fluorescent JAK2-JH2 Tracer, 1 hour at 25° C.; read-out: JH2 BIND WT
Experimental: Example B. JAK2 LanthaScreen JH2-WT Binding Assay JAK2 JH2-WT binding assay utilizes pseudo-kinase domain (JH2, amino-acids 536-812 with 3 surface mutations W659A, W777A, F794H) of human Wild Type JAK2 expressed as C-terminal His-Avi-tagged, biotinylated protein in a baculovirus expression system (BPS Bioscience, Catalog #79463). […] After incubation for 1 hour at 25° C., LanthaScreen signals were read on a PHERAstar FS plate reader (BMG LABTECH). […]
# IC50 values compiled below

Cn1ncc2cc(-c3c(-c4cnn(CC(C)(C)O)c4)[nH]c4ncc5c(c34)n(C3CCCC3)c(=O)n5C)ccc21 [Example 47] :: ≤ 10 nM

-- ask Need IC50 of COC1CC=C(c2c(-c3ccc(CN4CCC(S(C)(=O)=O)CC4)cc3)[nH]c3ncc4c(c23)n(C(C)(C)C)c(=O)n4C)CC1 (stereo not drawn) [Example 24] , thanks.
-- reply ≤ 10 nM

-- ask Need IC50 of CC(C)n1c(=O)n(C)c2cnc3[nH]c(C4=CCOCC4)c(-c4ccc(C#N)cc4)c3c21 [Example 38] , thanks.
-- reply 10 to 100 nM

-- ask Need IC50 of Cn1c(=O)n(C2CCCC2)c2c3c(-c4cc5cnccc5s4)c(C4CC4)[nH]c3ncc21 [Example 71] , thanks.
-- reply ≤ 10 nM

-- ask Need IC50 of CC(=O)N1CCN(c2ccc(-c3[nH]c4ncc5c(c4c3-c3ccc(C#N)cc3)n(C(C)C)c(=O)n5C)cc2)CC1 [Example 37] , thanks.
-- reply ≤ 10 nM

-- ask Need IC50 of CCOC(=O)N[C@H]1C[C@@H](n2c(=O)n(C)c3cnc4[nH]c(-c5cnn(C)c5)c(-c5ccc(OC)cc5)c4c32)C1 [Example 106] , thanks.
-- reply ≤ 10 nM

-- ask Need IC50 of CC(C)n1c(=O)n(C)c2cnc3[nH]c(-c4cnn(CC(C)(C)O)c4)c(-c4ccc5ncsc5c4)c3c21 [Example 78] , thanks.
-- reply 10 to 100 nM

-- ask Need IC50 of CC(C)n1c(=O)n(C)c2cnc3[nH]c(-c4cnn(CC(C)(C)O)c4)c(-c4cc5cnccc5s4)c3c21 [Example 75] , thanks.
-- reply ≤ 10 nM
